test: Pharmacokinetics in mice (IP, IV, PO); conditions: mouse, in vivo, PO 100 mg/kg
endpoint: AUC(0-t)
Number plus unit, in that order.

Record summary for C=CC(=O)Nc1cccc(C)c1Nc1cc(-c2cccnc2Nc2c(Cl)c(OC)cc(OC)c2Cl)ncn1 [Compound 5, reference compound] : reported AUC(0-t) = 1450 ng·h/mL

---

test: Pharmacokinetics in mice (IP, IV, PO); assay type: in vivo; settings: mouse, in vivo; mice, IV 1 mg/kg
endpoint: MRT inf (min)
Lab book: enter the figure in min, no units written.

Per the record, `C=CC(=O)N[C@H]1COC[C@H]1Nc1cc(-c2cccnc2Nc2c(Cl)c(OC)cc(OC)c2Cl)ncn1` has MRT inf of 32.2

---

assay: Pharmacokinetics in mice (IP, IV, PO); type: in vivo; conditions: mouse, in vivo; mice, PO 5 mg/kg
endpoint: MRT last

Recorded MRT last (compound C=CC(=O)N[C@H]1COC[C@H]1Nc1cc(-c2cccnc2Nc2c(Cl)c(OC)cc(OC)c2Cl)ncn1 [Compound 1] ): 3.42 h

---

assay: Pharmacokinetics in mice (IP, IV, PO); format: in vivo; conditions: mouse, in vivo; mice, IV 1 mg/kg
endpoint: Tmax
Numeric answer plus unit only.

The reported Tmax of the molecule `C=CC(=O)N[C@H]1COC[C@H]1Nc1cc(-c2cccnc2Nc2c(Cl)c(OC)cc(OC)c2Cl)ncn1` was 4.98 min

---

assay: Pharmacokinetics in mice (IP, IV, PO); format: in vivo; conditions: mouse, in vivo; mice, IV 1 mg/kg
endpoint: Cmax
Phrase the answer as number then unit, nothing more needed.

// field: Cmax; key: `C=CC(=O)N[C@H]1COC[C@H]1Nc1cc(-c2cccnc2Nc2c(Cl)c(OC)cc(OC)c2Cl)ncn1` ; value = 849 ng/mL

---

assay: Pharmacokinetics in mice (IP, IV, PO); type: in vivo; conditions: mouse, in vivo; mice, IV 1 mg/kg
endpoint: MRT last (min)
State the answer as a number, implicitly in min.

# molecule C=CC(=O)N[C@H]1COC[C@H]1Nc1cc(-c2cccnc2Nc2c(Cl)c(OC)cc(OC)c2Cl)ncn1 [Compound 1] ; its MRT last = 30.9

---

# key: entry, value: AUC(0-inf)
assay: Pharmacokinetics in mice (IP, IV, PO); type: in vivo; details: mouse, in vivo; mice, IP 10 mg/kg
Just the number in ng·h/mL, nothing appended.

{"compound": "C=CC(=O)N[C@H]1COC[C@H]1Nc1cc(-c2cccnc2Nc2c(Cl)c(OC)cc(OC)c2Cl)ncn1", "meas_value": 9610}

The record that follows has no AUC(0-inf) shown yet.
Data point: C=CC(=O)Nc1cccc(C)c1Nc1cc(-c2cccnc2Nc2c(Cl)c(OC)cc(OC)c2Cl)ncn1 [Compound 5, reference compound] ; AUC(0-inf) = 1280

---

assay: Pharmacokinetics in mice (IP, IV, PO); type: in vivo; conditions: mouse, in vivo; mice, PO 100 mg/kg
endpoint: MRT last (h)
Write the value in h as a bare number.

In plain terms, C=CC(=O)Nc1cccc(C)c1Nc1cc(-c2cccnc2Nc2c(Cl)c(OC)cc(OC)c2Cl)ncn1 [Compound 5, reference compound] has a documented MRT last of 6.1

---

assay: Pharmacokinetics in mice (IP, IV, PO); assay type: in vivo; conditions: mouse, in vivo; mice, IV 1 mg/kg
endpoint: half-life
Param answer (str): number followed by unit.

GET /value?item= `C=CC(=O)N[C@H]1COC[C@H]1Nc1cc(-c2cccnc2Nc2c(Cl)c(OC)cc(OC)c2Cl)ncn1` &field=half-life returns 31.3 min

---

test system: Hepatocyte; experiment: Mouse hepatocyte clearance; assay type: in vitro ADME; settings: mouse hepatocytes; value ± SE
Reported Hepatocyte Clin Ms (SE) values for the following compounds.
Numbers only; they are read as µL/min/1e6 cells.

{"compound": "C=CC(=O)Nc1cccc(C)c1Nc1cc(-c2cccnc2Nc2c(Cl)c(OC)cc(OC)c2Cl)ncn1 [Compound 5, reference compound]", "measured_on": "Hepatocyte", "quantity_unit": "µL/min/1e6 cells", "meas_value": 41.7}

Summary for this compound, `C=CC(=O)N[C@H]1COC[C@H]1Nc1cc(-c2cccnc2Nc2c(Cl)c(OC)cc(OC)c2Cl)ncn1` : Hepatocyte Clin Ms (SE) is 43.6

---

assay: Pharmacokinetics in mice (IP, IV, PO); format: in vivo; conditions: in vivo, intravenous; mouse; Table 2 summary
endpoint: clearance (mL/min/kg)
Report the value in mL/min/kg with no unit label.

{"molecule": "C=CC(=O)N[C@H]1COC[C@H]1Nc1cc(-c2cccnc2Nc2c(Cl)c(OC)cc(OC)c2Cl)ncn1", "clearance (mL/min/kg)": 26.7}

Now consider a different molecule.
Looking up C=CC(=O)Nc1cccc(C)c1Nc1cc(-c2cccnc2Nc2c(Cl)c(OC)cc(OC)c2Cl)ncn1 [Compound 5, reference compound] , I found its clearance recorded as 14

---

assay: Pharmacokinetics in mice (IP, IV, PO); format: in vivo; settings: in vivo, oral; mouse; Table 2 summary
Below: a set of entries, each annotated with reported bioavailability.
Unit % implied. Number only.

{"compound": "C=CC(=O)Nc1cccc(C)c1Nc1cc(-c2cccnc2Nc2c(Cl)c(OC)cc(OC)c2Cl)ncn1 [Compound 5, reference compound]", "meas_value": 8}

The value of bioavailability measured for the compound C=CC(=O)N[C@H]1COC[C@H]1Nc1cc(-c2cccnc2Nc2c(Cl)c(OC)cc(OC)c2Cl)ncn1 [Compound 1] turned out to be 20.9

---

experiment: Pharmacokinetics in mice (IP, IV, PO); type: in vivo; conditions: mouse, in vivo; mice, IV 1 mg/kg
endpoint: clearance (mL/min/kg)
Please give a number only; it is taken to be in mL/min/kg.

Reported clearance for C=CC(=O)N[C@H]1COC[C@H]1Nc1cc(-c2cccnc2Nc2c(Cl)c(OC)cc(OC)c2Cl)ncn1 [Compound 1] was 27.2

---

experiment: Pharmacokinetics in mice (IP, IV, PO); format: in vivo; settings: mouse, in vivo; mice, IV 1 mg/kg
endpoint: AUC(0-inf) (ng·h/mL)
Report as a plain number; the unit ng·h/mL is understood.

For record `C=CC(=O)N[C@H]1COC[C@H]1Nc1cc(-c2cccnc2Nc2c(Cl)c(OC)cc(OC)c2Cl)ncn1` the listed AUC(0-inf) is 621

---

biological target: FGFR1 (Homo sapiens, UniProt P11362); experiment: FGFR1 kinase inhibition (IC50); assay type: biochemical; details: read-out: FGFR1 Inhibition (IC50 class)
Sequence (P11362 22-822): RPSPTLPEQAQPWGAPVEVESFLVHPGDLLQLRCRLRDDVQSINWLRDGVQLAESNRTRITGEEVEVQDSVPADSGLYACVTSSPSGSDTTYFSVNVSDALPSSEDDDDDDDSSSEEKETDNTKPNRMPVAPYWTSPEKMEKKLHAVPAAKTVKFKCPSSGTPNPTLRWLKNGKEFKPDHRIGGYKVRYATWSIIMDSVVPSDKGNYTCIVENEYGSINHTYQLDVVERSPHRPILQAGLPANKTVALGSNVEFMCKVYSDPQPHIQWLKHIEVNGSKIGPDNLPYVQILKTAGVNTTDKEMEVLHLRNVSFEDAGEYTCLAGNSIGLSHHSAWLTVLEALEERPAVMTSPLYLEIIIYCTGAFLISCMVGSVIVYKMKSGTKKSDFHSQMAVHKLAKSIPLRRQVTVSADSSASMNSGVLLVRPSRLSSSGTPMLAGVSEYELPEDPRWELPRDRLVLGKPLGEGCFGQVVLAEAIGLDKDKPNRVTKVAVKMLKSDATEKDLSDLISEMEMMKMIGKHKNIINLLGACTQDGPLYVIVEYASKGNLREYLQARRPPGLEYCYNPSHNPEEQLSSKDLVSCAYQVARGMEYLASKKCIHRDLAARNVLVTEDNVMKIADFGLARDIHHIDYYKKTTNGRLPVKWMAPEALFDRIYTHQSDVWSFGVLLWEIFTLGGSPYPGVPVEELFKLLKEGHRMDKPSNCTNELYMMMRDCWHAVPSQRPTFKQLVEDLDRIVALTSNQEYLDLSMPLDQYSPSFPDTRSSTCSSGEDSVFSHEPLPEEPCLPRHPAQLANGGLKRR
The entries below come with measured IC50 values attached.

Data point: `C=CC(=O)Nc1cc(OCCN(CC)CC)ccc1Nc1cc(-c2cccnc2Nc2c(Cl)c(OC)cc(OC)c2Cl)ncn1` ; IC50 = ≥ 1 µM

molecule `C=CC(=O)Nc1cc(OCCN2CCCC2)ccc1Nc1cc(-c2cccnc2Nc2c(Cl)c(OC)cc(OC)c2Cl)ncn1` , IC50 observed: 0.1 to 1 µM

Please fill in: IC50 reported for C=CC(=O)Nc1cc(OC2CCOC2)ccc1Nc1cc(-c2cccnc2Nc2c(Cl)c(OC)cc(OC)c2Cl)ncn1 (stereo not shown) = ≥ 1 µM

Data point: `C=CC(=O)Nc1cc(OC2CN(C)C2)ccc1Nc1cc(-c2cccnc2Nc2c(Cl)c(OC)cc(OC)c2Cl)ncn1` ; IC50 = 0.1 to 1 µM

---

assay: Pharmacokinetics in mice (IP, IV, PO); format: in vivo; details: mouse, in vivo; mice, PO 5 mg/kg
endpoint: AUC(0-t) (ng·h/mL)
Give just the numeric value; ng·h/mL need not be written.

For record `C=CC(=O)N[C@H]1COC[C@H]1Nc1cc(-c2cccnc2Nc2c(Cl)c(OC)cc(OC)c2Cl)ncn1` the listed AUC(0-t) is 465

---

assay: Pharmacokinetics in mice (IP, IV, PO); assay type: in vivo; conditions: mouse, in vivo; mice, IV 5 mg/kg
endpoint: half-life (min)
Output spec: scalar in min, unitless text.

Per the records, this molecule ( C=CC(=O)Nc1cccc(C)c1Nc1cc(-c2cccnc2Nc2c(Cl)c(OC)cc(OC)c2Cl)ncn1 [Compound 5, reference compound] ) has half-life equal to 906

---

target: FGFR2 (Homo sapiens, UniProt P21802); test: FGFR2 kinase inhibition (IC50); format: biochemical; settings: read-out: IC50 towards FGFR2
Sequence (P21802 22-821): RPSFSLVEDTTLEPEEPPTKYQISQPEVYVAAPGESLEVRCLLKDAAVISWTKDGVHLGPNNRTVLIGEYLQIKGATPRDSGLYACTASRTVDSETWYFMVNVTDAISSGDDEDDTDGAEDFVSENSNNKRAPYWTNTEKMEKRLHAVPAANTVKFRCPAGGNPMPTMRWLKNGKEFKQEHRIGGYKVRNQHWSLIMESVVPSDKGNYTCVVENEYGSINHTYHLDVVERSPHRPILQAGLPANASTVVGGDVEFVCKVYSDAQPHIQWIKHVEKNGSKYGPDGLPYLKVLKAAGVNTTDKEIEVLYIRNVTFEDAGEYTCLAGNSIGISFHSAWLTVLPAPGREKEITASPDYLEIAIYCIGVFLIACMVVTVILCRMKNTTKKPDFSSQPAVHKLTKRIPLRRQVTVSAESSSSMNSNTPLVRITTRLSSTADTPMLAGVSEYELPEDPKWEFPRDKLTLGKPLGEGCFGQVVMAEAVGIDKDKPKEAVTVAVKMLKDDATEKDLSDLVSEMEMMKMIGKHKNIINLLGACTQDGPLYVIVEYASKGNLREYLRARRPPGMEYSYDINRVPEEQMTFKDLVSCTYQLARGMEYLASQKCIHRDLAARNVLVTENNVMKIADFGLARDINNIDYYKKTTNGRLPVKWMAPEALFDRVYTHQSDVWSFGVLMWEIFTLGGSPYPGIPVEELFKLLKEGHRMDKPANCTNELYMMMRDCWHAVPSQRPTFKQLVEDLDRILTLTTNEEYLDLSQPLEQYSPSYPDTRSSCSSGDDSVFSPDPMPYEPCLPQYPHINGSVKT
endpoint: pIC50
// pIC50: -log10(molar conc.)

Readout pIC50 for `C=CC(=O)N[C@H]1COC[C@H]1Nc1cc(-c2cccnc2Nc2c(Cl)c(OC)cc(OC)c2Cl)ncn1` , test system FGFR2 (Homo sapiens, UniProt P21802), was 5.73

---

target: FGFR4 (Homo sapiens, UniProt P22455); test: FGFR4 kinase inhibition (IC50); assay type: biochemical; conditions: read-out: IC50 towards FGFR4
Sequence (P22455 22-802): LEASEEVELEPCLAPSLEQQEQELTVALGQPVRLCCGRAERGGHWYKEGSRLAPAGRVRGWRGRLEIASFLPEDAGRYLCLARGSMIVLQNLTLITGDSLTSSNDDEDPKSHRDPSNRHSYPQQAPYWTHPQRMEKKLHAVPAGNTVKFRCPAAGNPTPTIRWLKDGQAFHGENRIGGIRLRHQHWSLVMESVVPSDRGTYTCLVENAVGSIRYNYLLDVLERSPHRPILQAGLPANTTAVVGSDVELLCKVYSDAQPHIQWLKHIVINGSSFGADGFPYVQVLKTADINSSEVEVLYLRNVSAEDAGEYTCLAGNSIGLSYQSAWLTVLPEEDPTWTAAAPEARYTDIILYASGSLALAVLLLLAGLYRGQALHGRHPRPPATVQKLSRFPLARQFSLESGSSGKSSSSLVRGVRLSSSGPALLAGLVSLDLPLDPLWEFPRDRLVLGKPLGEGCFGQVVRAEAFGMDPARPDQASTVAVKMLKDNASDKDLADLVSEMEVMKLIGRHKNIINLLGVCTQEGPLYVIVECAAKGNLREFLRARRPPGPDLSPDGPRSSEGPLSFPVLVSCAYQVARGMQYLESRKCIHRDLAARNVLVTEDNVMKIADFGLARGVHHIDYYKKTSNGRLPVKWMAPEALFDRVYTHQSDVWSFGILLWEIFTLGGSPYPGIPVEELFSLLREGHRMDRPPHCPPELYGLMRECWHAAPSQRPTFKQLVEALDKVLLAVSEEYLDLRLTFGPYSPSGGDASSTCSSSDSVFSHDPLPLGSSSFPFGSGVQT
endpoint: IC50 (µM)
Kindly provide the numeric value in µM only, without the unit symbol.

# IC50 (compound: C=CC(=O)N[C@H]1COC[C@H]1Nc1cc(-c2cccnc2Nc2c(Cl)c(OC)cc(OC)c2Cl)ncn1 [Compound 1] ) is 0.02

Data provenance is patent US12409177B2.
